The values you see were collected from PubChem BioAssay (EPA / NIEHS).

Assay: Tanguay_ZF_120hpf_SOMI_legacy: (Legacy) Oregon State University Tanguay Lab 120 Hour Post-fertilization zebrafish Assay for Somite Malformation (AID 2283647)
Inconclusive results are not listed. Calls of active or inactive are those of the source. How the source made its calls: active means hit-call score of the fitted dose curve at least 0.9, where 1 is the maximum; inconclusive means response in the unintended direction; inactive means score below 0.9.
Outcome codes: active, inactive

compound | cat
CCOP(=S)(OCC)SCSCC | inactive
Cc1ccc(O)cc1C | inactive
Cc1cccc(N)c1 | inactive
ClC1=C(Cl)C2(Cl)C3C(Cl)C(Cl)CC3C1(Cl)C2(Cl)Cl (centres undefined) | inactive
O=[N+]([O-])c1ccccc1 | inactive
CCC1(c2ccccc2)C(=O)N=C(O)NC1=O (centres undefined) | inactive
CCCCCCCc1ccc(O)cc1 | inactive
c1nc[nH]n1 | inactive
Nc1ccc2ccccc2c1 | inactive
CC(C)(C)OOC(C)(C)C | inactive
CCOc1ccc(C(C)(C)COCc2cccc(Oc3ccccc3)c2)cc1 | inactive
Nc1cc2c3c(c1)C(c1ccccc1)=N[C@@H](NC(=O)c1cccnc1)C(=O)N3CC2 | inactive
CCC(C)(C)c1ccc(O)cc1 | active
ClC(Cl)(Cl)c1ccccc1 | inactive
CCOS(=O)(=O)OCC | inactive
c1ccc2c(c1)Nc1ccccc1S2 | inactive
O=P(Oc1ccccc1)(Oc1ccccc1)Oc1ccccc1 | inactive
Nc1ccc(Cl)cc1 | inactive
CCCCc1ccccc1 | inactive
